target.under.test: Adenosine A2 receptor (Rattus norvegicus, UniProt P29276+P30543)
test.protocol: Inhibitory concentration against [3H]CGS 21680 binding to adenosine A2 receptors in rat striatal membrane
observed.property: IC50 (µM)

Study these solved cases before continuing.
CCCCn1c(=O)[nH]c2c(cnn2-c2cccc(Cl)c2)c1=N; 19.2
CCCn1c(=O)[nH]c2c(cnn2-c2cccc(Cl)c2)c1=N; 47.3
CCCn1c(=O)[nH]c2c(cnn2-c2ccccc2)c1=N; 50.2
CCn1c(=O)[nH]c2c(cnn2-c2cccc(Cl)c2)c1=N; 23.5

(A) CCn1c(=O)[nH]c2c(cnn2-c2ccccc2)c1=N
(B) CCCCn1c(=O)[nH]c2c(cnn2-c2ccccc2)c1=N
Query string: Could you point out whether the larger IC50 belongs to A or to B ? Return value: the label identifying the chosen record.
Result string: A
(A: 81.8 µM, B: 24.8 µM)

###

target.under.test: Adenosine receptors; A1 & A2 (Rattus norvegicus) (UniProt P29276+P25099+P30543)
test.protocol: Ratio of IC50 for A2 and A1 receptor binding
Format: protein assay
observed.property: Ratio

Study these solved cases before continuing.
CCn1c(=O)[nH]c2c(cnn2-c2cccc(Cl)c2)c1=N; 1.2
CCn1c(=O)[nH]c2c(cnn2-c2ccccc2)c1=N; 4.1
CCCCn1c(=O)[nH]c2c(cnn2-c2ccccc2)c1=N; 2.6

(a) CCCn1c(=O)[nH]c2c(cnn2-c2ccccc2)c1=N
(b) CCCn1c(=O)[nH]c2c(cnn2-c2cccc(Cl)c2)c1=N
Query string: Could you point out whether the larger Ratio belongs to a or to b ? Return value: the label identifying the chosen record.
Result string: b
(b: 3.2, a: 1)

###

target.under.test: Adenosine A2 receptor (Rattus norvegicus) (UniProt P29276+P30543)
test.protocol: Inhibition of radioligand R[3H]-CGS 21680 binding to adenosine A2 receptors in rat striatal membrane at 20 uM concentration.
Assay type: cell membranes
measurement.conditions: Striatum
observed.property: inhibition (%)

(1) Cn1c(=O)[nH]c2c(cnn2-c2cccc(Br)c2)c1=N
(2) CCCn1ncc2c(=N)n(C)c(=O)[nH]c21
Query string: Could you point out whether the larger inhibition belongs to 1 or to 2 ? Return value: the label identifying the chosen record.
Result string: 1
(1: 1%, 2: 0%)

(I) Cn1c(=O)[nH]c2c(cnn2-c2ccccc2Cl)c1=N
(II) Cn1c(=O)[nH]c2c(cnn2-c2cccc([N+](=O)[O-])c2)c1=N
Query string: Looking at recorded values for inhibition, does I or II come in lower? Return value: the label identifying the chosen record.
Result string: I
(I: 0%, II: 1%)

###

target.under.test: UniProt:P25099
Sequence (whole entry): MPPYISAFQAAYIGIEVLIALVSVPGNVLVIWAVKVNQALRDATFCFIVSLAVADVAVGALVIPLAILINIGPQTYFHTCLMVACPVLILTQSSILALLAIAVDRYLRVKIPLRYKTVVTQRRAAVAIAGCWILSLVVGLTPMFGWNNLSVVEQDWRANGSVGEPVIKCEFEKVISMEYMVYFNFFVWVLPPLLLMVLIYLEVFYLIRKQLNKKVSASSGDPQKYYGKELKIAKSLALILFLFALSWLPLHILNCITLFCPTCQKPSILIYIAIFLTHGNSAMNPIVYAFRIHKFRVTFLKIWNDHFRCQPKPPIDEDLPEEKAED
test.protocol: Inhibition of radioligand R[3H]-N6-PIA binding to adenosine A1 receptors in rat whole brain membrane at 20 uM concentration.
Assay type: cell membranes
observed.property: inhibition (%)

Cn1c(=O)[nH]c2c(cnn2-c2ccccc2Cl)c1=N; 7

(a) Cn1c(=O)[nH]c2c(cnn2-c2ccccc2Br)c1=N
(b) N=c1c2cnn(-c3ccccc3)c2[nH]c(=O)n1-c1ccccc1
(c) Cn1c(=O)[nH]c2c(cnn2-c2cccc(N)c2)c1=N
(d) CCCn1c(=O)[nH]c2c(cnn2-c2cccc(Cl)c2)c1=N
(e) Cn1c(=O)[nH]c2c(cnn2-c2ccc(Cl)cc2)c1=N
Query string: Which order do these items take when sorted by rising inhibition? List them. Answer by writing out the labels in the requested order.
Result string: c, a, b, e, d
(c: 0%, a: 6%, b: 25%, e: 37%, d: 68%)

(I) Cn1c(=O)[nH]c2c(cnn2-c2ccccc2[N+](=O)[O-])c1=N
(II) Cn1c(=O)[nH]c2c(cnn2-c2ccc(F)cc2)c1=N
Query string: Looking at recorded values for inhibition, does I or II come in lower? Return value: the label identifying the chosen record.
Result string: I
